Where these numbers come from: ChEMBL document CHEMBL3232935

# TEST DESCRIPTION: Lipophilicity, log P of the compound
# Assay type: physicochemical
# RUN PARAMETERS: octanol/water
Each record's logP is compared with lower segment: < 3; middle segment: ≥ 3 and < 4; upper segment: ≥ 4 to give its class.

MOL | ANSWER LABEL
CC(C)(C)c1ccc(-c2cn(CC(=O)NC34CC5CC(CC(C5)C3)C4)nn2)cc1 | upper segment
O=C(Cn1cc(-c2cc3ccccc3c3ccccc23)nn1)NC12CC3CC(CC(C3)C1)C2 | upper segment
CCCCCc1cn(CC(=O)NC23CC4CC(CC(C4)C2)C3)nn1 | middle segment
CCCCCCc1cn(CC(=O)NC23CC4CC(CC(C4)C2)C3)nn1 | middle segment
COc1ccc2cc(-c3cn(CC(=O)NC45CC6CC(CC(C6)C4)C5)nn3)ccc2c1 | middle segment
O=C(Cn1cc(-c2ccc(C(F)(F)F)cc2)nn1)NC12CC3CC(CC(C3)C1)C2 | middle segment
CCCCc1cn(CC(=O)NC23CC4CC(CC(C4)C2)C3)nn1 | lower segment
CCCCCc1ccc(-c2cn(CC(=O)NC34CC5CC(CC(C5)C3)C4)nn2)cc1 | upper segment
COc1ccc(-c2cn(CC(=O)NC34CC5CC(CC(C5)C3)C4)nn2)c(C)c1 | middle segment
O=C(Cn1cc(-c2ccsc2)nn1)NC12CC3CC(CC(C3)C1)C2 | lower segment

====

# Test system: Mycobacterium tuberculosis
# TEST DESCRIPTION: microbe, parasite or virus in culture
# Assay type: functional
# RUN PARAMETERS: H37Rv ATCC 27294, 672 h
# Description: Antitubercular activity against Mycobacterium tuberculosis H37Rv ATCC 27294 after 28 days by agar dilution method
Each entry below lists one item and its recorded MIC value.
PROPERTY MEASURED: MIC

MOL | SYSTEM TESTED | PROPERTY MEASURED | RESULT VALUE
O=C(Cn1cc(-c2ccccc2)nn1)NC12CC3CC(CC(C3)C1)C2 | Mycobacterium tuberculosis | MIC | 50 µg/mL
COc1ccc2cc(-c3cn(CC(=O)NC45CC6CC(CC(C6)C4)C5)nn3)ccc2c1 | Mycobacterium tuberculosis | MIC | 50 µg/mL
CC(=O)c1ccc(C)cc1OCc1cn(CC(=O)NC23CC4CC(CC(C4)C2)C3)nn1 | Mycobacterium tuberculosis | MIC | 50 µg/mL

====

Each entry below lists one item and its recorded cytotoxicity at 72 h, 50 ug/ml value.
# TEST DESCRIPTION: Cytotoxicity against HEK293T cells at 50 ug/ml after 72 hrs by MTT assay
# Assay type: cell-based, HEK-293T
# RUN PARAMETERS: human, read-out: INH

MOL | cytotoxicity at 72 h, 50 ug/ml [%]
CCCCCc1ccc(-c2cn(CC(=O)NC34CC5CC(CC(C5)C3)C4)nn2)cc1 | 18.7
O=C(Cn1cc(CCCO)nn1)NC12CC3CC(CC(C3)C1)C2 | 20.7
O=C(Cn1cc(-c2cc3ccccc3c3ccccc23)nn1)NC12CC3CC(CC(C3)C1)C2 | 20.1
O=C(Cn1cc(C2(O)CCCCC2)nn1)NC12CC3CC(CC(C3)C1)C2 | 17.5

====

# Test system: Mycobacterium tuberculosis
# TEST DESCRIPTION: microbe, parasite or virus in culture
# Assay type: functional
# RUN PARAMETERS: H37Rv ATCC 27294, 672 h

MOLECULE | MIC / µg/mL
CCCCc1cn(CC(=O)NC23CC4CC(CC(C4)C2)C3)nn1 | 50
NNC(=O)c1ccncc1 | 0.1
CCCCCCc1cn(CC(=O)NC23CC4CC(CC(C4)C2)C3)nn1 | 50
CCCCCc1ccc(-c2cn(CC(=O)NC34CC5CC(CC(C5)C3)C4)nn2)cc1 | 6.25
O=C(Cn1cc(-c2ccc([N+](=O)[O-])cc2)nn1)NC12CC3CC(CC(C3)C1)C2 | 50
COc1cccc(-c2cn(CC(=O)NC34CC5CC(CC(C5)C3)C4)nn2)c1 | 25
O=C(Cn1cc(-c2cc3ccccc3c3ccccc23)nn1)NC12CC3CC(CC(C3)C1)C2 | 3.12
COc1ccc(-c2cn(CC(=O)NC34CC5CC(CC(C5)C3)C4)nn2)c(C)c1 | 50
CCCCCc1cn(CC(=O)NC23CC4CC(CC(C4)C2)C3)nn1 | 50
O=C(Cn1cc(CCc2ccccc2)nn1)NC12CC3CC(CC(C3)C1)C2 | 50
CC[C@@H](CO)NCCN[C@@H](CC)CO | 3.13
CC(C)(C)c1ccc(-c2cn(CC(=O)NC34CC5CC(CC(C5)C3)C4)nn2)cc1 | 50
O=C(Cn1cc(-c2ccc(F)c(F)c2)nn1)NC12CC3CC(CC(C3)C1)C2 | 50
O=C(Cn1cc(-c2ccc(F)cc2F)nn1)NC12CC3CC(CC(C3)C1)C2 | 50
O=C(Cn1cc(-c2ccc(C(F)(F)F)cc2)nn1)NC12CC3CC(CC(C3)C1)C2 | 50
NC(=O)c1cnccn1 [PYRAZINAMIDE] | 50
O=C(Cn1cc(CCCO)nn1)NC12CC3CC(CC(C3)C1)C2 | 6.25
O=C(Cn1cc(-c2ccc(Cl)c(Cl)c2)nn1)NC12CC3CC(CC(C3)C1)C2 | 50
O=C(Cn1cc(-c2ccsc2)nn1)NC12CC3CC(CC(C3)C1)C2 | 50
O=C(Cn1cc(C2(O)CCCCC2)nn1)NC12CC3CC(CC(C3)C1)C2 | 6.25
O=C(Cn1cc(C2(O)CCCC2)nn1)NC12CC3CC(CC(C3)C1)C2 | 50
